# ASSAY_DETAILS: HCT116 colon cancer cell growth inhibition, primary screen, CellTiter-Glo luminescence, NPC library (AID 1117342)
# PARTICULARS: at 20 µM (top of the series)
The label is Satisfied for inhibition of viability below 20% and Not satisfied for inhibition of viability equal to or exceeding 20%.

Example cases with answers are listed next.
Nc1ccc(C(=O)N2CC3CC(CN(Cc4ccccc4)C3)C2)cc1 = Not satisfied
CCCCCCCCCCCCSCCOCCO = Satisfied
NC(=O)NC1N=C([O][Al])NC1=O (stereo not drawn) = Satisfied
CN[C@H](CC(C)C)C(=O)N[C@H]1C(=O)N[C@@H](CC(N)=O)C(=O)N[C@H]2C(=O)N[C@H]3C(=O)N[C@H](C(=O)N[C@H](C(=O)O)c4cc(O)cc(O)c4-c4cc3ccc4O)[C@H](O)c3ccc(c(Cl)c3)Oc3cc2cc(c3O[C@@H]2OC(CO)[C@@H](O)[C@H](O)[C@@H]2O[C@H]2C[C@](C)(N)[C@H](O)[C@H](C)O2)Oc2ccc(cc2Cl)[C@H]1O (stereo partly drawn) = Satisfied
O=C(CCCN1CC=C(n2c(=O)[nH]c3ccccc32)CC1)c1ccc(F)cc1 = Not satisfied

I wonder whether Oc1ccc(/C=C/c2cc(O)cc(O)c2)cc1 has inhibition of viability below 20%. Can you tell?
Not satisfied

Does CCCCCCNC(=O)n1cc(F)c(=O)[nH]c1=O have inhibition of viability strictly under 20%?
Not satisfied

Is inhibition of viability strictly under 20% for the entry CC[C@H]1CN2CCc3cc(OC)c(OC)cc3[C@@H]2C[C@@H]1C[C@H]1NCCc2cc(OC)c(OC)cc21 ?
Not satisfied

* * *

Below, each entry is listed alongside its reported z-score.
# ASSAY_DETAILS: activators of macrophage pro-inflammatory response, cell-based, murine, luminescence (AID 652131)
# PARTICULARS: murine macrophage pro-inflammatory reporter, stronger effect = higher value
No unit in the answer, only the number.

COc1cc2c(cc1Nc1nc(Nc3ccsc3C(N)=O)c3cc[nH]c3n1)N(C(=O)CN(C)C)CCC2 = 2.59
NS(=O)(=O)c1cccc(-c2cc3ccncc3cc2OCc2ccccc2)c1 = -0.246
COc1cc(Nc2ncc3c(C)nc(-c4cccc(Oc5ccccc5)c4)n3n2)cc(OC)c1OC = -0.606

# input molecule: CC(C)(CO)CNC(=O)c1ccc2[nH]c(O)c(N=Nc3ccc(S(N)(=O)=O)cc3)c2c1 ; wanted: its z-score
-0.381

Returns the measured z-score for the input molecule. Input: COc1cc2ncnc(Nc3ccc4c(cnn4Cc4ccccc4)c3)c2cc1OC
3.16

Consider the molecule shown here: CN(c1ccc(NC(=O)Nc2c(Cl)cccc2Cl)cc1)c1ccnc(Nc2cccc(CS(C)(=O)=O)c2)n1 What is its recorded z-score?
5.36

Entry O=C(NCC1CC1)c1ccc(-c2cccc(C(=O)NC3CC3)c2)cc1 : reported z-score = ?
1.36

* * *

# ASSAY_DETAILS: modulators of glucocorticoid suppression of NF-kB, cell-based, luciferase, IL-1B stimulus, dexamethasone (AID 624486);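 also: 100% = mean signal of vehicle control wells on the plate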
# PARTICULARS: NF-kB luciferase reporter, IL-1B + dexamethasone, luminescence; actives lie on both sides, concentration not given here
Listing of entries alongside the reported percent of negative control (+Dex).
Give just the number in %; leave the unit off.

O=C1NC(=NCC(CO)c2ccccc2)SC1=Cc1ccc2ncccc2c1 (stereo unspecified) = 86
COc1cccc(C2=C(c3cn(C)c4cccc(OC)c34)C(=O)NC2=O)c1 = 99
COC(=O)Nc1nc2ccc(Oc3ccc(NC(=O)Nc4cc(C(F)(F)F)ccc4F)cc3)cc2s1 = 120
Nc1c(C(=O)c2ccc(CCCN3CCOCC3)cc2)cnn1-c1ccc(F)cc1 = 106
N#Cc1cccc(Nc2ncc(-c3ccccc3)o2)c1 = 241

# query: percent of negative control (+Dex) of entry COc1ccc(N2Cc3cnc(Nc4ccccc4)nc3N(C3CCC(O)C3)C2=O)cc1 (stereo unspecified)
67

Consider the compound shown here: O=C1NC(=O)C(c2ccccc2Cl)=C1Nc1cc(Cl)c(O)c(Cl)c1 What is its recorded percent of negative control (+Dex)?
95.5

Entry Cc1ccc2c(-c3ccnc(Nc4ccccc4)n3)c(-c3ccc(F)cc3)nn2n1 has what percent of negative control (+Dex)?
81

What does the record list as percent of negative control (+Dex) for Nc1nccc(C#Cc2cncnc2Nc2ccc(OCc3cccc(F)c3)c(Cl)c2)n1 ?
83.5

Can you share its percent of negative control (+Dex)? I mean this compound: COc1cc(F)c(F)cc1C(=O)c1cnc(NC2CCN(S(C)(=O)=O)CC2)nc1N
79

Tell me the measured percent of negative control (+Dex) of CCS(=O)(=O)c1ccc(OC)c(Nc2ncc(-c3cccc(OC)c3)o2)c1 , please.
78.5

// lookup percent of negative control (+Dex) for CN1CCC(n2cnc(-c3ccc(F)cc3)c2-c2ccnc(N)n2)CC1
107

Entry under review: O=C(Nc1ccc(Oc2ccc3nc(NC(=O)c4ccccc4)[nH]c3c2)cc1)Nc1cc(C(F)(F)F)ccc1F . Reported percent of negative control (+Dex)?
102

// returns reported percent of negative control (+Dex) for input c1ccc(Oc2ccc(Nc3ncc(-c4ccccc4)o3)cc2)cc1
110

Look at this compound and give its reported percent of negative control (+Dex). COc1ccccc1Oc1nccc(-c2c(-c3ccc(F)cc3)ncn2C2CCNCC2)n1
104

Need percent of negative control (+Dex), item NS(=O)(=O)c1cccc(N=Cc2c(O)[nH]c3ccccc23)c1
89.5

Return reported percent of negative control (+Dex); argument: Cn1c(=O)c(Cc2ccccc2F)cc2cnc(NC3CCOCC3)nc21
107

Need percent of negative control (+Dex) of Nc1c(C(=O)c2cccc(CCCN3CCOCC3)c2)cnn1-c1ccc(F)cc1 , thanks.
109

Endpoint output: percent of negative control (+Dex) of c1cnn2ncc(-c3ccnc(Nc4ccc5c(c4)OCCO5)n3)c2c1 . Value?
5

Need percent of negative control (+Dex) of COc1cc(Nc2ncc3c(C)nc(-c4cccc(C(F)(F)F)c4)n3n2)cc(OC)c1OC , thanks.
59.5

For the compound CCn1c(-c2nonc2N)nc2c(C#CC(C)(C)O)ncc(OC[C@@H]3CCCN3)c21 , what percent of negative control (+Dex) is on record?
104

* * *

# ASSAY_DETAILS: modulation of C. elegans fzo-1 (AID 1259413);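 also: fzo-1 mutant C. elegans worms in liquid wells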
# PARTICULARS: C. elegans fzo-1 modulator screen, mean read-out; stronger effect = higher value
PARAMETER: mean signal
Output: the number by itself.

Cn1cnc([N+](=O)[O-])c1Sc1ncnc2nc[nH]c12 = 260
CCCNC(=O)NS(=O)(=O)c1ccc(Cl)cc1 = 243
Cc1cn([C@H]2C[C@H](N=[N+]=[N-])[C@@H](CO)O2)c(=O)[nH]c1=O = 236
O[C@@H](c1cc(C(F)(F)F)nc2c(C(F)(F)F)cccc12)[C@H]1CCCCN1 = 213
CCCCc1oc2ccccc2c1C(=O)c1cc(I)c(OCCN(CC)CC)c(I)c1 = 244

Which mean signal is reported for this compound? CN(C)CCN(Cc1ccccc1)c1ccccn1
272

Fill blank: measured mean signal of the compound CC12CC3CC(C)(C1)CC(N)(C3)C2 is ____.
254

Given NS(=O)(=O)c1cc(C2(O)NC(=O)c3ccccc32)ccc1Cl (stereo not drawn) , state its recorded mean signal.
251

* * *

# ASSAY_DETAILS: HCT116 colon cancer cell growth inhibition, primary screen, CellTiter-Glo luminescence, NPC library (AID 1117342)
# PARTICULARS: at 20 µM (top of the series)
PARAMETER: inhibition of viability (%)
Enter your answer as a number in %; do not include the unit.

Examples from the recorded data:
CN1CCC(N(Cc2cccs2)c2ccccc2)CC1 = 49.3
CC1(C)O[C@@H]2C[C@H]3[C@@H]4CCC5=CC(=O)C=C[C@]5(C)[C@@H]4[C@@H](O)C[C@]3(C)[C@]2(C(=O)CO)O1 = -6.5
O=C(Nc1ccc(Br)cc1)c1cc(Br)c(Br)s1 = 99.7
CCOc1ncc(F)c(=O)[nH]1 = 2.4

Alright, here's another compound for you.
Item under review: CCn1cc(C(=O)O)c(=O)c2cc(F)c(N3CCN(C)CC3)cc21 . Reported inhibition of viability?
-14.7

* * *

Measured viability decrease (inhibition) by item
# ASSAY_DETAILS: decreased DLD-1 cellular survival, CellTiter-Glo luminescent readout, NPC compound collection, primary HTS (AID 1117346)
# PARTICULARS: DLD-1 viability, CellTiter-Glo luminescence; at 20 µM (top of the series)
Supply the numeric figure in %, leaving out any unit text.

Sample records with viability decrease (inhibition):
O=C(NCN1CCOCC1)c1cnccn1 = 8.3
CCCCN1CCCC[C@H]1C(=O)Nc1c(C)cccc1C = 23.1
CCc1cccc2c3c([nH]c12)C(CC)(CC(=O)O)OCC3 (stereo not drawn) = -11.6

# viability decrease (inhibition) lookup, item O=C(O)c1[nH]n(-c2ccc(S(=O)(=O)O)cc2)c(=O)c1N=Nc1ccc(S(=O)(=O)O)cc1
6.5

I have this compound here, Nc1ccc(S(=O)(=O)NCc2ccccc2)cc1 , and I need its recorded viability decrease (inhibition).
10.1

Query: viability decrease (inhibition); subject: CC(C)NCCCC1(C(N)=O)c2ccccc2-c2ccccc21
-17

Which viability decrease (inhibition) value belongs to O=C(O)c1ccccn1 ?
22

So what does the record say about viability decrease (inhibition) for CCN1CCCC1CN (stereo not drawn) ?
12.4

Look up viability decrease (inhibition) for this compound: CC(CCc1ccc2c(c1)OCO2)NN (stereo not drawn)
17.7

I have this compound here, C/C(=N/NC(=O)c1ccncc1)C(=O)O , and I need its recorded viability decrease (inhibition).
4.2

# get_value(readout='viability decrease (inhibition)', item= CC(=O)/C=C/C=C1/C2CCC(C2)C1(C)C (stereo not drawn) )
-15.2
